# Test system: Escherichia coli
# METHOD_DESCRIPTION: Antibacterial activity against Escherichia coli ATCC 11775 after 18 hrs by CLSI microdilution broth assay
# Assay type: functional
# MEASUREMENT_CONTEXT: ATCC 11775, 18 h
Where a SMILES comes first, the peptide text is derived from it. [ ]: non-standard residue; d: D form. The star is where a group is joined. Linoleoyl = CCCCC/C=C\C/C=C\CCCCCCCC(=O)*; NMeL = CN[C@@H](CC(C)C)C(=O)O; X1 = Nc1ccc(/C=C/C(=O)*)cc1; Orn = NCCC[C@H](N)C(=O)O; 2Abz = Nc1ccccc1C(=O)O
We begin with a simple list: items and their reported MIC.
ASSAY_READOUT: MIC (µg/mL)

MOLECULE	READING_UNIT	ENDPOINT_VALUE
NCCC[C@H](NC(=O)c1ccccc1N)C(=O)N[C@@H](CCCN)C(=O)N[C@@H](Cc1c[nH]c2ccccc12)C(=O)N[C@@H](Cc1c[nH]c2ccccc12)C(N)=O (H-[2Abz][Orn][Orn]WW-NH2)	µg/mL	64
CN(C)[C@@H]1C(O)=C(C(N)=O)C(=O)[C@@]2(O)C(O)=C3C(=O)c4c(O)cccc4[C@@](C)(O)[C@H]3C[C@@H]12	µg/mL	0.3
CN[C@@H](CC(C)C)C(=O)N[C@@H](CCCN)C(=O)N[C@@H](CCCN)C(=O)N[C@@H](Cc1c[nH]c2ccccc12)C(=O)N[C@@H](Cc1c[nH]c2ccccc12)C(N)=O (H-[NMeL][Orn][Orn]WW-NH2)	µg/mL	64
CCCCC/C=C\C/C=C\CCCCCCCC(=O)N[C@@H](CCCN)C(=O)N[C@@H](CCCN)C(=O)N[C@@H](Cc1c[nH]c2ccccc12)C(=O)N[C@@H](Cc1c[nH]c2ccccc12)C(N)=O (Linoleoyl-[Orn][Orn]WW-NH2)	µg/mL	2
NCCC[C@H](NC(=O)/C=C/c1ccc(N)cc1)C(=O)N[C@@H](CCCN)C(=O)N[C@@H](Cc1c[nH]c2ccccc12)C(=O)N[C@@H](Cc1c[nH]c2ccccc12)C(N)=O (X1-[Orn][Orn]WW-NH2)	µg/mL	32

----------
# METHOD_DESCRIPTION: Hemolytic activity against human erythrocytes assessed as hemoglobin release at 500 ug/ml after 1 hr by ELISA
# Format: ADME, cell-based, Erythrocyte
# MEASUREMENT_CONTEXT: read-out: Activity
Where a SMILES comes first, the peptide text is derived from it. [ ]: non-standard residue; d: D form. The star is where a group is joined. Benzoyl(4-(biphenyl-4-yl)) = O=C(c1ccc(-c2ccc(-c3ccccc3)cc2)cc1)*; Orn = NCCC[C@H](N)C(=O)O
ASSAY_READOUT: hemolysis at 1 h, 500 ug/ml (%)

MOLECULE	ENDPOINT_VALUE
NCCC[C@H](NC(=O)c1ccc(-c2ccc(-c3ccccc3)cc2)cc1)C(=O)N[C@@H](CCCN)C(=O)N[C@@H](Cc1c[nH]c2ccccc12)C(=O)N[C@@H](Cc1c[nH]c2ccccc12)C(N)=O ({Benzoyl(4-(biphenyl-4-yl))}-[Orn][Orn]WW-NH2)	50

----------
# System: Lipid bilayer
# METHOD_DESCRIPTION: Binding affinity to mammalian membrane mimic POPC SUVs assessed as blue shift in tryptophan emission maxima at 3 uM after 2 mins by spectrofluorimeter analysis
Where a SMILES comes first, the peptide text is derived from it. [ ]: non-standard residue; d: D form. The star is where a group is joined. Benzoyl(4-(biphenyl-4-yl)) = O=C(c1ccc(-c2ccc(-c3ccccc3)cc2)cc1)*; Linoleoyl = CCCCC/C=C\C/C=C\CCCCCCCC(=O)*; NMeL = CN[C@@H](CC(C)C)C(=O)O; NMeV = CN[C@H](C(=O)O)C(C)C; Orn = NCCC[C@H](N)C(=O)O; 2Abz = Nc1ccccc1C(=O)O

COMPOUND	READING_UNIT	Tryptophan emission maximum blue shift
CN[C@H](C(=O)N[C@@H](CCCN)C(=O)N[C@@H](CCCN)C(=O)N[C@@H](Cc1c[nH]c2ccccc12)C(=O)N[C@@H](Cc1c[nH]c2ccccc12)C(N)=O)C(C)C (H-[NMeV][Orn][Orn]WW-NH2)	nm	0
NCCC[C@H](NC(=O)[C@@H](N)CCCN)C(=O)N[C@@H](Cc1c[nH]c2ccccc12)C(=O)N[C@@H](Cc1c[nH]c2ccccc12)C(N)=O (H-[Orn][Orn]WW-NH2)	nm	2
NCCC[C@H](NC(=O)c1ccc(-c2ccc(-c3ccccc3)cc2)cc1)C(=O)N[C@@H](CCCN)C(=O)N[C@@H](Cc1c[nH]c2ccccc12)C(=O)N[C@@H](Cc1c[nH]c2ccccc12)C(N)=O ({Benzoyl(4-(biphenyl-4-yl))}-[Orn][Orn]WW-NH2)	nm	2
CCCCC/C=C\C/C=C\CCCCCCCC(=O)N[C@@H](CCCN)C(=O)N[C@@H](CCCN)C(=O)N[C@@H](Cc1c[nH]c2ccccc12)C(=O)N[C@@H](Cc1c[nH]c2ccccc12)C(N)=O (Linoleoyl-[Orn][Orn]WW-NH2)	nm	2
CN[C@@H](CC(C)C)C(=O)N[C@@H](CCCN)C(=O)N[C@@H](CCCN)C(=O)N[C@@H](Cc1c[nH]c2ccccc12)C(=O)N[C@@H](Cc1c[nH]c2ccccc12)C(N)=O (H-[NMeL][Orn][Orn]WW-NH2)	nm	1
NCCC[C@H](NC(=O)c1ccccc1N)C(=O)N[C@@H](CCCN)C(=O)N[C@@H](Cc1c[nH]c2ccccc12)C(=O)N[C@@H](Cc1c[nH]c2ccccc12)C(N)=O (H-[2Abz][Orn][Orn]WW-NH2)	nm	1

----------
Reported MIC values follow for various compounds
# System: Escherichia coli
# METHOD_DESCRIPTION: Antibacterial activity against Escherichia coli ATCC 11775 after 18 hrs by CLSI microdilution broth assay
# Assay type: functional
# MEASUREMENT_CONTEXT: ATCC 11775, 18 h
Where a SMILES comes first, the peptide text is derived from it. [ ]: non-standard residue; d: D form. The star is where a group is joined. Benzoyl(4-(biphenyl-4-yl)) = O=C(c1ccc(-c2ccc(-c3ccccc3)cc2)cc1)*; NMeV = CN[C@H](C(=O)O)C(C)C; Orn = NCCC[C@H](N)C(=O)O

COMPOUND	MIC
NCCC[C@H](NC(=O)[C@@H](N)CCCN)C(=O)N[C@@H](Cc1c[nH]c2ccccc12)C(=O)N[C@@H](Cc1c[nH]c2ccccc12)C(N)=O (H-[Orn][Orn]WW-NH2)	512 µg/mL
NCCC[C@H](NC(=O)c1ccc(-c2ccc(-c3ccccc3)cc2)cc1)C(=O)N[C@@H](CCCN)C(=O)N[C@@H](Cc1c[nH]c2ccccc12)C(=O)N[C@@H](Cc1c[nH]c2ccccc12)C(N)=O ({Benzoyl(4-(biphenyl-4-yl))}-[Orn][Orn]WW-NH2)	2 µg/mL
CN[C@H](C(=O)N[C@@H](CCCN)C(=O)N[C@@H](CCCN)C(=O)N[C@@H](Cc1c[nH]c2ccccc12)C(=O)N[C@@H](Cc1c[nH]c2ccccc12)C(N)=O)C(C)C (H-[NMeV][Orn][Orn]WW-NH2)	256 µg/mL

----------
# Test system: Lipid bilayer
# METHOD_DESCRIPTION: Binding affinity to bacterial membrane mimic POPC/POPG (7:3 w/w) SUVs assessed as blue shift in tryptophan emission maxima at 3 uM after 2 mins by spectrofluorimeter analysis
Where a SMILES comes first, the peptide text is derived from it. [ ]: non-standard residue; d: D form. The star is where a group is joined. Benzoyl(4-(biphenyl-4-yl)) = O=C(c1ccc(-c2ccc(-c3ccccc3)cc2)cc1)*; Linoleoyl = CCCCC/C=C\C/C=C\CCCCCCCC(=O)*; NMeL = CN[C@@H](CC(C)C)C(=O)O; NMeV = CN[C@H](C(=O)O)C(C)C; X1 = Nc1ccc(/C=C/C(=O)*)cc1; Orn = NCCC[C@H](N)C(=O)O; 2Abz = Nc1ccccc1C(=O)O
Readings of Activity for the listed compounds

COMPOUND	READING_UNIT	Activity
CN[C@H](C(=O)N[C@@H](CCCN)C(=O)N[C@@H](CCCN)C(=O)N[C@@H](Cc1c[nH]c2ccccc12)C(=O)N[C@@H](Cc1c[nH]c2ccccc12)C(N)=O)C(C)C (H-[NMeV][Orn][Orn]WW-NH2)	nm	3
NCCC[C@H](NC(=O)c1ccc(-c2ccc(-c3ccccc3)cc2)cc1)C(=O)N[C@@H](CCCN)C(=O)N[C@@H](Cc1c[nH]c2ccccc12)C(=O)N[C@@H](Cc1c[nH]c2ccccc12)C(N)=O ({Benzoyl(4-(biphenyl-4-yl))}-[Orn][Orn]WW-NH2)	nm	30
NCCC[C@H](NC(=O)[C@@H](N)CCCN)C(=O)N[C@@H](Cc1c[nH]c2ccccc12)C(=O)N[C@@H](Cc1c[nH]c2ccccc12)C(N)=O (H-[Orn][Orn]WW-NH2)	nm	3
NCCC[C@H](NC(=O)/C=C/c1ccc(N)cc1)C(=O)N[C@@H](CCCN)C(=O)N[C@@H](Cc1c[nH]c2ccccc12)C(=O)N[C@@H](Cc1c[nH]c2ccccc12)C(N)=O (X1-[Orn][Orn]WW-NH2)	nm	2
CN[C@@H](CC(C)C)C(=O)N[C@@H](CCCN)C(=O)N[C@@H](CCCN)C(=O)N[C@@H](Cc1c[nH]c2ccccc12)C(=O)N[C@@H](Cc1c[nH]c2ccccc12)C(N)=O (H-[NMeL][Orn][Orn]WW-NH2)	nm	4
CCCCC/C=C\C/C=C\CCCCCCCC(=O)N[C@@H](CCCN)C(=O)N[C@@H](CCCN)C(=O)N[C@@H](Cc1c[nH]c2ccccc12)C(=O)N[C@@H](Cc1c[nH]c2ccccc12)C(N)=O (Linoleoyl-[Orn][Orn]WW-NH2)	nm	10
NCCC[C@H](NC(=O)c1ccccc1N)C(=O)N[C@@H](CCCN)C(=O)N[C@@H](Cc1c[nH]c2ccccc12)C(=O)N[C@@H](Cc1c[nH]c2ccccc12)C(N)=O (H-[2Abz][Orn][Orn]WW-NH2)	nm	5

Cited source: ChEMBL document CHEMBL3217464
